Measured values drawn from BigSolDB 2.1 for this set.

conditions: in ethanol, 308.2 K
ENDPOINT_LABEL: solubility (mole fraction)
Just the number, please, no unit after it.

**Query** What measured solubility (mole fraction) goes with COC(=O)[C@H](N)c1ccc(O)cc1 ?
**Result** 0.00522

---

details: in water, 303.18 K
ENDPOINT_LABEL: solubility (mole fraction)
Form rule: numeric answer, no unit written next to it.

**Query** Returns the measured solubility (mole fraction) for the input compound. Input: COC(=O)[C@H](N)c1ccc(O)cc1
**Result** 0.000123

---

settings: in isopropanol, 293.14 K
ENDPOINT_LABEL: solubility (mole fraction)

**Query** Suppose we examine the molecule COC(=O)[C@H](N)c1ccc(O)cc1 ; what solubility (mole fraction) value has been reported?
**Result** 0.000576

---

details: in n-butyl acetate, 323.12 K
ENDPOINT_LABEL: solubility (mole fraction)

**Query** Quick check: solubility (mole fraction) of COC(=O)[C@H](N)c1ccc(O)cc1 ?
**Result** 0.000873

---

settings: in n-propyl acetate, 283.15 K
ENDPOINT_LABEL: solubility (mole fraction)
Hey, just send me the number, nothing else.

**Query** Consider the compound shown here: COC(=O)[C@H](N)c1ccc(O)cc1 What is its recorded solubility (mole fraction)?
**Result** 6.95e-05

---

conditions: in n-pentanol, 298.15 K
ENDPOINT_LABEL: solubility (mole fraction)
// no unit string in output, number only

**Query** Value lookup for solubility (mole fraction); key = COC(=O)[C@H](N)c1ccc(O)cc1
**Result** 0.000606

---

settings: in isopropanol, 308.2 K
ENDPOINT_LABEL: solubility (mole fraction)
Give your answer as a number; write no unit.

**Query** Please report the recorded solubility (mole fraction) for COC(=O)[C@H](N)c1ccc(O)cc1 .
**Result** 0.00258

---

details: in n-pentanol, 318.15 K
ENDPOINT_LABEL: solubility (mole fraction)

**Query** For COC(=O)[C@H](N)c1ccc(O)cc1 , what is its reported solubility (mole fraction)?
**Result** 0.00399

---

conditions: in isopropyl acetate, 288.15 K
ENDPOINT_LABEL: solubility (mole fraction)
// no unit, no text: just the number

**Query** Dear colleague, I am looking for the recorded solubility (mole fraction) of the following compound: COC(=O)[C@H](N)c1ccc(O)cc1
**Result** 8.53e-05

---

details: in isopropyl acetate, 303.13 K
ENDPOINT_LABEL: solubility (mole fraction)
Lab note: jot down the number only; don't add units.

**Query** Endpoint output: solubility (mole fraction) of COC(=O)[C@H](N)c1ccc(O)cc1 . Value?
**Result** 0.00037

---

settings: in isopropyl acetate, 313.15 K
ENDPOINT_LABEL: solubility (mole fraction)
// return a plain number; no unit text

**Query** Can you look up the measured solubility (mole fraction) of COC(=O)[C@H](N)c1ccc(O)cc1 for me?
**Result** 0.0008

---

details: in methyl acetate, 283.12 K
ENDPOINT_LABEL: solubility (mole fraction)
The reply should be a number, written without any unit.

**Query** What value of solubility (mole fraction) has been reported for the following compound? COC(=O)[C@H](N)c1ccc(O)cc1
**Result** 0.000417

---

conditions: in n-butanol, 323.15 K
ENDPOINT_LABEL: solubility (mole fraction)
Answer as a number with no unit attached.

**Query** Request the reported solubility (mole fraction) associated with COC(=O)[C@H](N)c1ccc(O)cc1
**Result** 0.00733

---

conditions: in isopropyl acetate, 283.17 K
ENDPOINT_LABEL: solubility (mole fraction)

**Query** What value of solubility (mole fraction) has been reported for the following compound? COC(=O)[C@H](N)c1ccc(O)cc1
**Result** 4.68e-05

---

conditions: in methanol, 318.15 K
ENDPOINT_LABEL: solubility (mole fraction)
Format: numeric value only, no unit, no commentary.

**Query** Sample COC(=O)[C@H](N)c1ccc(O)cc1 — what was its solubility (mole fraction)?
**Result** 0.00872

---

details: in water, 283.13 K
ENDPOINT_LABEL: solubility (mole fraction)
// response body must contain only the number

**Query** Any idea what its solubility (mole fraction) is? The compound is COC(=O)[C@H](N)c1ccc(O)cc1
**Result** 1.9e-05

---

details: in methyl acetate, 293.17 K
ENDPOINT_LABEL: solubility (mole fraction)
I only need the number, thanks.

**Query** Give the measured solubility (mole fraction) of COC(=O)[C@H](N)c1ccc(O)cc1 .
**Result** 0.000914

---

settings: in n-pentanol, 288.2 K
ENDPOINT_LABEL: solubility (mole fraction)
Lab note: jot down the number only; don't add units.

**Query** Any idea what its solubility (mole fraction) is? The compound is COC(=O)[C@H](N)c1ccc(O)cc1
**Result** 0.000156

---

details: in n-butyl acetate, 303.15 K
ENDPOINT_LABEL: solubility (mole fraction)
Reply with the value as a number alone.

**Query** Data request, read-out solubility (mole fraction), for COC(=O)[C@H](N)c1ccc(O)cc1
**Result** 0.000233

---

conditions: in methyl acetate, 288.2 K
ENDPOINT_LABEL: solubility (mole fraction)
Output: the number by itself.

**Query** Which solubility (mole fraction) reading was recorded for the compound COC(=O)[C@H](N)c1ccc(O)cc1 ?
**Result** 0.000578

---

conditions: in n-butanol, 283.15 K
ENDPOINT_LABEL: solubility (mole fraction)
Reply with the value as a number alone.

**Query** What does the record list as solubility (mole fraction) for COC(=O)[C@H](N)c1ccc(O)cc1 ?
**Result** 0.000489

---

conditions: in methyl acetate, 308.15 K
ENDPOINT_LABEL: solubility (mole fraction)
Keep it simple and answer with nothing but the number.

**Query** // solubility (mole fraction) lookup, key: COC(=O)[C@H](N)c1ccc(O)cc1
**Result** 0.00253

---

settings: in ethanol, 303.15 K
ENDPOINT_LABEL: solubility (mole fraction)
Write the value as a bare number.

**Query** // returns reported solubility (mole fraction) for input COC(=O)[C@H](N)c1ccc(O)cc1
**Result** 0.00411

---

conditions: in isopropyl acetate, 318.15 K
ENDPOINT_LABEL: solubility (mole fraction)
Lab note: jot the number down without any unit.

**Query** Please give the measured solubility (mole fraction) for this compound: COC(=O)[C@H](N)c1ccc(O)cc1
**Result** 0.00111

---

conditions: in water, 298.15 K
ENDPOINT_LABEL: solubility (mole fraction)
No unit in the answer, please; the number alone is enough.

**Query** For COC(=O)[C@H](N)c1ccc(O)cc1 , what is its reported solubility (mole fraction)?
**Result** 7.86e-05

---

conditions: in methanol, 288.15 K
ENDPOINT_LABEL: solubility (mole fraction)

**Query** What measured solubility (mole fraction) goes with COC(=O)[C@H](N)c1ccc(O)cc1 ?
**Result** 0.00273

---

conditions: in n-butyl acetate, 283.1 K
ENDPOINT_LABEL: solubility (mole fraction)
The response must contain the number and no unit.

**Query** Looking for the measured solubility (mole fraction) of COC(=O)[C@H](N)c1ccc(O)cc1 , can you help?
**Result** 5.67e-05

---

conditions: in n-propanol, 283.13 K
ENDPOINT_LABEL: solubility (mole fraction)
When you answer, write just the number.

**Query** Entry COC(=O)[C@H](N)c1ccc(O)cc1 : reported solubility (mole fraction) = ?
**Result** 0.000939

---

conditions: in n-butanol, 298.18 K
ENDPOINT_LABEL: solubility (mole fraction)
Response field accepts a number only; no unit should be typed.

**Query** Can you look up the measured solubility (mole fraction) of COC(=O)[C@H](N)c1ccc(O)cc1 for me?
**Result** 0.00164

---

details: in n-pentanol, 283.14 K
ENDPOINT_LABEL: solubility (mole fraction)

**Query** I have this compound here, COC(=O)[C@H](N)c1ccc(O)cc1 , and I need its recorded solubility (mole fraction).
**Result** 6.94e-05

---

conditions: in n-pentanol, 293.15 K
ENDPOINT_LABEL: solubility (mole fraction)

**Query** State the recorded solubility (mole fraction) for this entry: COC(=O)[C@H](N)c1ccc(O)cc1
**Result** 0.000322

---

settings: in methanol, 298.1 K
ENDPOINT_LABEL: solubility (mole fraction)

**Query** Look up solubility (mole fraction) for this compound: COC(=O)[C@H](N)c1ccc(O)cc1
**Result** 0.00415

---

settings: in ethanol, 293.15 K
ENDPOINT_LABEL: solubility (mole fraction)

**Query** For the compound shown here, COC(=O)[C@H](N)c1ccc(O)cc1 , give the reported solubility (mole fraction).
**Result** 0.0024

---

conditions: in water, 318.15 K
ENDPOINT_LABEL: solubility (mole fraction)
# respond with the number and nothing more

**Query** Name the recorded solubility (mole fraction) for COC(=O)[C@H](N)c1ccc(O)cc1 .
**Result** 0.0003
